CC50 values by entry
- System: HeLa
- Run Description: Cytotoxicity against human HeLa cells assessed as cell viability after 72 hrs by MTS assay
- Format: cell-based
Measured Endpoint: CC50 (µg/mL)

In [3]: df
Out[3]:
                                 smiles_code  unit_annotation  recorded_number
 0  CC(=O)O.c1cc2cc(-c3cnc(-c4cc5ccc(C6=NCCCN6)cc5[nH]4)cn3)[nH]c2cc1C1=NCCCN1            µg/mL             42.7
 1  CC(=O)O.c1cc2cc(-c3ccc(-c4cc5ccc(C6=NCCCN6)cc5o4)cn3)[nH]c2cc1C1=NCCCN1            µg/mL             15.6
 2  CC(=O)O.c1cc2cc(-c3ccc4cc(C5=NCCCN5)[nH]c4c3)sc2cc1C1=NCCCN1            µg/mL             27.5
 3  O=C(O)C(F)(F)F.c1cc2cc(CCc3cc4ccc(C5=NCCCN5)cc4[nH]3)[nH]c2cc1C1=NCCCN1            µg/mL             24.6
 4  CC(C)NC(=N)c1ccc2cc(-c3ccc(-c4cc5ccc(C(=N)NC(C)C)cc5[nH]4)cc3)[nH]c2c1.O=C(O)C(F)(F)F            µg/mL              3.5
 5  O=C(O)C(F)(F)F.c1cc2cc(-c3ccc(-c4cn5ccc(C6=NCCCN6)cc5n4)cc3)[nH]c2cc1C1=NCCCN1            µg/mL             20.9
 6  O=C(O)C(F)(F)F.c1cc2cc(-c3ccc(-c4cc5ccc(C6=NCCCN6)cc5[nH]4)cc3)[nH]c2cc1C1=NCCCN1            µg/mL                4
 7  CC(=O)O.c1cc2cc(-c3ccc(-c4ccc5nc(C6=NCCCN6)cn5c4)cc3)oc2cc1C1=NCCCN1            µg/mL             20.7
 8  CC(=O)O.c1cc2cc(-c3ccc(-c4ccc5nc(C6=NCCCN6)cn5c4)cc3)[nH]c2cc1C1=NCCCN1            µg/mL             34.6
 9  CC(=O)O.c1cn2cc(-c3ccc(-c4ccc5cc(C6=NCCCN6)[nH]c5c4)cc3)nc2cc1C1=NCCCN1            µg/mL             20.7
10  Cl.OCC1(CO)CN=C(c2ccc3cc(-c4ccc(-c5cc6ccc(C7=NCC(CO)(CO)CN7)cc6[nH]5)cc4)[nH]c3c2)NC1            µg/mL             32.4
11  CC(=O)O.c1cn2cc(-c3ccc(-c4ccc5cc(C6=NCCCN6)oc5c4)cc3)nc2cc1C1=NCCCN1            µg/mL             32.5
